- procedure-summary: Kinetic solubility of the compound in 1%DMSO at pH 6.8
- Assay type: physicochemical
- test-conditions: read-out: Kinetic_solubility
Items are presented alongside their recorded solubility kinetic.
The figure you give is taken to be in µM; do not add the unit.

These recorded examples may help you get a feel for the data.
O=S(=O)(c1ccc2nc(N3CCOC(c4ccccc4)C3)[nH]c2c1)C(F)(F)F (stereo not given)
3.7
CC(C)(C)S(=O)(=O)c1ccc2[nH]c(N3CCOC(c4ccccc4)C3)nc2c1 (stereo not given)
10.7
CCS(=O)(=O)c1ccc2[nH]c(N3CCOC(c4ccc(Cl)cc4)C3)nc2c1 (stereo not given)
38.1
CC(C)(C(F)(F)F)S(=O)(=O)c1ccc2nc(N3CCOC(c4ccccc4)C3)[nH]c2c1 (stereo not given)
11.6

Attention now turns to another entry.
Problem: What does the record list as solubility kinetic for CCCS(=O)(=O)c1ccc2[nH]c(N3CCC(c4ccccc4)C3)nc2c1 (stereo not given) ?
Result: 15.4

---

- target-system: UniProt:P33261
- Sequence (P33261 whole entry): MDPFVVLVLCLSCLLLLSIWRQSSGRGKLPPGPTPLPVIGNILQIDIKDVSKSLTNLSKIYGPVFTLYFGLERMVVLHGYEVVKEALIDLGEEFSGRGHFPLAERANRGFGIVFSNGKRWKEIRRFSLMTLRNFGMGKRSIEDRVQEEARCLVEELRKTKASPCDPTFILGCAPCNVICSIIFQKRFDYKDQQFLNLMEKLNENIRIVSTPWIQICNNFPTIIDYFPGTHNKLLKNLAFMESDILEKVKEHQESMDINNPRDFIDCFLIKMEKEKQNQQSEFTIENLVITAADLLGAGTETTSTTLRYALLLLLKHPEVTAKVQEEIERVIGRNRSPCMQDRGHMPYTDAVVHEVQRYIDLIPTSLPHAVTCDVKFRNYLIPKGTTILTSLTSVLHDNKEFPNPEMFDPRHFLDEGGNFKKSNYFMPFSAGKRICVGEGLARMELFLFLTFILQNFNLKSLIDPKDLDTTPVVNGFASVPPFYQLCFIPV
- procedure-summary: Inhibition of CYP2C19
- Type: ADME
Items are presented alongside their recorded INH.
The figure you give is taken to be in µM; do not add the unit.

These recorded examples may help you get a feel for the data.
CCCS(=O)(=O)c1ccc2nc(N3CCOC(c4ccccc4)C3)[nH]c2c1 (stereo not given)
19
CCCS(=O)(=O)c1ccc2[nH]c(C3CCOC(c4ccccc4)C3)nc2c1 (mixture of isomers)
20
CCS(=O)(=O)c1ccc2[nH]c(N3CCOC(c4ccc(Cl)cc4)C3)nc2c1 (stereo not given)
9.1
CCCS(=O)(=O)c1ccc2nc(N3CCCC(c4ccccc4)C3)[nH]c2c1 (stereo not given)
12

Problem: What does the record list as INH for CCS(=O)(=O)c1ccc2[nH]c(N3CCOC(c4ccc(C)cc4)C3)nc2c1 (stereo not given) ?
Result: 17

---

Items are presented alongside their recorded solubility kinetic.
- procedure-summary: Kinetic solubility of the compound in 1%DMSO at pH 6.8
- Format: physicochemical
- test-conditions: read-out: Kinetic_solubility

O=S(=O)(CC(F)(F)F)c1ccc2[nH]c(N3CCOC(c4ccccc4)C3)nc2c1 (stereo not given)
> 50 µM
CC(C)CS(=O)(=O)c1ccc2[nH]c(N3CCOC(c4ccccc4)C3)nc2c1 (stereo not given)
43.2 µM
CC(C)(C)S(=O)(=O)N[C@H]1CC[C@H](C(=O)Nc2ccc(C(F)(F)F)cn2)CC1 [VELNEPERIT]
1.6 µg/mL
CC(C)S(=O)(=O)c1ccc2nc(N3CCOC(c4ccccc4)C3)[nH]c2c1 (stereo not given)
> 50 µM

Problem: What does the record list as solubility kinetic for CCCS(=O)(=O)c1ccc2nc(N3CCN(C)C(c4ccccc4)C3)[nH]c2c1 (stereo not given) ?
Result: > 50 µM

---

- target-system: Cytochrome P450 2D6 (Homo sapiens, UniProt P10635)
- Sequence (P10635 whole entry): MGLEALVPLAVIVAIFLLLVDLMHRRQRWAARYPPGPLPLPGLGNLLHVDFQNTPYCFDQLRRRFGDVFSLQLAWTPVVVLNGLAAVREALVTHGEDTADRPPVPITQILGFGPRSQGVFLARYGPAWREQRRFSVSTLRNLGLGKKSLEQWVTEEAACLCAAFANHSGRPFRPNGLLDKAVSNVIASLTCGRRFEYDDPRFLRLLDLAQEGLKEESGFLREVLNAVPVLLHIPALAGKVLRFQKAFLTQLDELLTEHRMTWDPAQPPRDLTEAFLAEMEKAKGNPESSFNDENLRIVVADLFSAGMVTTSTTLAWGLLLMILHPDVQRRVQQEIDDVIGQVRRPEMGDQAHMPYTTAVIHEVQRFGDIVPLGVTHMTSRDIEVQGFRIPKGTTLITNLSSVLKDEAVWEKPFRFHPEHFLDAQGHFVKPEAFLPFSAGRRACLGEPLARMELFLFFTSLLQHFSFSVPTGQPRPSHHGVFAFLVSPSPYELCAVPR
- procedure-summary: Inhibition of CYP2D6
- Format: ADME
Items are presented alongside their recorded INH.

These recorded examples may help you get a feel for the data.
CCS(=O)(=O)c1ccc2[nH]c(N3CCOC(c4ccc(Cl)cc4)C3)nc2c1 (stereo not given)
18 µM
CC(C)(C)S(=O)(=O)c1ccc2[nH]c(N3CCOC(c4ccccc4)C3)nc2c1 (stereo not given)
> 20 µM
O=S(=O)(CC(F)(F)F)c1ccc2[nH]c(N3CCOC(c4ccccc4)C3)nc2c1 (stereo not given)
> 20 µM
CCCS(=O)(=O)c1ccc2[nH]c(N3CCC(c4ccccc4)C3)nc2c1 (stereo not given)
> 20 µM

Problem: What does the record list as INH for CCS(=O)(=O)c1ccc2[nH]c(N3CCOC(c4ccc(F)cc4)C3)nc2c1 (stereo not given) ?
Result: > 20 µM

Ref: ChEMBL document CHEMBL2157871
